target desc: Retinoic acid receptor RXR-alpha (Homo sapiens) (UniProt P19793)
Sequence (P19793 whole entry, looked up): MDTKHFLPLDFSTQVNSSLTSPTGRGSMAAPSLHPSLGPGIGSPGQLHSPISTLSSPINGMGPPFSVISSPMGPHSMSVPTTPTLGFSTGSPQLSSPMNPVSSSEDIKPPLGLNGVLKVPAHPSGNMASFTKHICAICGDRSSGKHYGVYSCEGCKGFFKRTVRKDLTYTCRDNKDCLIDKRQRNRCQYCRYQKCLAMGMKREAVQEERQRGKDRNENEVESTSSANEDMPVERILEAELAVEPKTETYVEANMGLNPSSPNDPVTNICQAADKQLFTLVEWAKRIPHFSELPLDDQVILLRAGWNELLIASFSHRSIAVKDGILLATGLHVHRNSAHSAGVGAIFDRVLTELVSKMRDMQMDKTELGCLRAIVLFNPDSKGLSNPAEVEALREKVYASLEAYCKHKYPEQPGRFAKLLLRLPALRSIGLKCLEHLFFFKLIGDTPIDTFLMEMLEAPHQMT
procedure summary: OT_NURR1_NURR1RXRa_0480: Odyssey Thera (OT) 8-hour HEK293T Protein Complementation Assay for Nurr1/retinoid X receptor (RXR) (AID 2283385)
Records with an inconclusive call do not appear. Calls of active or inactive are those of the source. How the source made its calls: active means hit-call score of the fitted dose curve at least 0.9, where 1 is the maximum; inconclusive means response in the unintended direction; inactive means score below 0.9.
Pick from active, inactive when you respond.

Observe how each entry below is paired with its result.
{"columns": ["compound", "cat"],
 "data": [
  ["O=C(CC(C(=O)OC1CCCCC1)S(=O)(=O)O)OC1CCCCC1 (stereo not drawn)", "inactive"],
  ["CCOC(=O)c1ccccc1", "inactive"],
  ["O=C(O)/C=C\\C(=O)O", "inactive"],
  ["O=C(OCc1ccccc1)c1ccccc1", "inactive"],
  ["Oc1cccc2ccccc12", "inactive"]
]}

What outcome does the record of this test show for CCCCC(CC)COC(=O)CS (stereo not drawn) ? active

###

procedure summary: TOX21_p53_BLA_p4_viability: Viability Assessment in the Tox21 HCT-116 p53 Agonism Beta-lactamase Assay, Phase 4 (AID 2283597);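 further: hits lower the luminescence signal meaning cytotoxicity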
Results filed as inconclusive are left out. Activity calls are given as the source filed them. How the source made its calls: active means hit-call score of the fitted dose curve at least 0.9, where 1 is the maximum; inconclusive means response in the unintended direction; inactive means score below 0.9.
Pick from active, inactive when you respond.

What outcome does the record of this test show for c1ccc2c(CC3=NCCN3)cccc2c1 ? inactive

What outcome does the record of this test show for O=C1NC2CCCCN2C12CCN(CCCN1c3ccccc3CCc3ccc(Cl)cc31)CC2 (configuration not stated) ? active

What outcome does the record of this test show for CCCN[C@H]1CCc2nc(N)sc2C1 ? inactive

What outcome does the record of this test show for CC(C)Nc1ccccc1 ? inactive

What outcome does the record of this test show for CC(C)[C@@H]1CC[C@@H](C)C[C@H]1OC(=O)c1ccccc1O ? inactive

What outcome does the record of this test show for CC1=NN(c2cc(Cl)c(S(=O)(=O)O)cc2Cl)C(=O)C1N=Nc1ccc(S(=O)(=O)O)cc1 (configuration not stated) ? inactive

###

procedure summary: TOX21_p53_BLA_p5_viability: Viability Assessment in the Tox21 HCT-116 p53 Agonism Beta-lactamase Assay, Phase 5 (AID 2283600)
Results filed as inconclusive are left out. The source made the active and inactive calls. How the source made its calls: active means hit-call score of the fitted dose curve at least 0.9, where 1 is the maximum; inconclusive means response in the unintended direction; inactive means score below 0.9.
Pick from yes (1) = active, no (0) = inactive when you respond.

Observe how each entry below is paired with its result.
{"columns": ["compound", "cat"],
 "data": [
  ["CC(C)(C)c1cc(CO)cc(C(C)(C)C)c1O", "no (0)"],
  ["c1ccc(CNCCNCc2ccccc2)cc1", "no (0)"],
  ["Cl[Si](Cl)(c1ccccc1)c1ccccc1", "no (0)"]
]}

What outcome does the record of this test show for CCCCCCCCCCCCCCCC(=O)OC[C@@H](NC(=O)C(Cl)Cl)[C@H](O)c1ccc([N+](=O)[O-])cc1 ? no (0)

What outcome does the record of this test show for O=S(=O)(O)c1ccc2c(N=Nc3ccc(S(=O)(=O)O)c4ccccc34)c(O)c(S(=O)(=O)O)cc2c1 ? no (0)

What outcome does the record of this test show for CC(=O)O[C@H]1C(=O)[C@@]2(C)[C@H]([C@H](OC(=O)c3ccccc3)[C@]3(O)C[C@H](OC(=O)[C@H](O)[C@@H](NC(=O)c4ccccc4)c4ccccc4)C(C)=C1C3(C)C)[C@]1(OC(C)=O)CO[C@@H]1C[C@@H]2O ? no (0)

What outcome does the record of this test show for CN1[C@@H]2CCC[C@H]1CC(NC(=O)c1nn(C)c3ccccc13)C2 (stereo partly drawn) ? no (0)

What outcome does the record of this test show for O=C(CN1CCN(Cc2ccc3c(c2)OCO3)CC1)N1c2ccccc2Sc2ccccc21 ? no (0)

###

Read-out: CD40, CD40 (gene 958)
procedure summary: BSK_SAg_CD40: BioMAP Diversity Plus: SAg Assay for CD40 Biomarker Activity (AID 2283088)
test conditions: primary human HUVEC with PBMC; actives raise or lower the signal
Activity calls are given as the source filed them. Rule for the calls: active = hit-call score of the fitted dose curve at least 0.9, where 1 is the maximum; inactive = score below 0.9.
Pick from 1 for active, -1 for inactive when you respond.

{"columns": ["molecule", "cat"],
 "data": [
  ["CCC(C)=NO", -1],
  ["CN(C)Cc1cc(C(C)(C)C)c(O)c(C(C)(C)C)c1", -1],
  ["CCCCCCCCCC/C=C/C1CC(=O)OC1=O (stereo not drawn)", -1]
]}

Okay, next one:
What outcome does the record of this test show for Sc1nc2ccccc2s1 ? -1

###

procedure summary: TOX21_p53_BLA_p5_viability: Viability Assessment in the Tox21 HCT-116 p53 Agonism Beta-lactamase Assay, Phase 5 (AID 2283600)
Results filed as inconclusive are left out. Active and inactive are the calls of the source. How the source made its calls: active means hit-call score of the fitted dose curve at least 0.9, where 1 is the maximum; inconclusive means response in the unintended direction; inactive means score below 0.9.
Pick from 1 = active, 0 = inactive when you respond.

{"columns": ["molecule", "cat"],
 "data": [
  ["C[n+]1c2cc(N)ccc2cc2ccc(N)cc21 (tested in a mixture with another compound)", 0],
  ["O=C1CCCCO1", 0],
  ["CNCCc1ccccn1", 0],
  ["O=C(O)c1cc(Cl)cc(Cl)c1O", 0],
  ["Cc1cc(CC(C)CC(C)(C)C)n(O)c(=O)c1 (stereo not given) (tested in a mixture with another compound)", 1]
]}

What outcome does the record of this test show for CC(C)C(O)(c1ccc(OC(F)(F)F)cc1)c1cncnc1 (stereo not given) ? 0

###

procedure summary: ATG_RORE_CIS: Attagene CIS-FACTORIAL HepG2 Assay for human RAR-related Orphan Receptor Element (RORE) (AID 2282959)
test conditions: HepG2 Attagene cis-factorial RORE reporter, mRNA; actives raise or lower the signal
Active and inactive are the calls of the source. How the source made its calls: active means hit-call score of the fitted dose curve at least 0.9, where 1 is the maximum; inactive means score below 0.9.
Pick from active, inactive when you respond.

What outcome does the record of this test show for CCCCCCCCCCCCCC ? inactive

What outcome does the record of this test show for CC(C)CC(=O)CC(C)C ? inactive

What outcome does the record of this test show for CCCCCC[C@@H](O)C/C=C\CCCCCCCC(=O)O ? active

What outcome does the record of this test show for CN(C)CCC(c1ccc(Cl)cc1)c1ccccn1 (centres undefined) ? inactive

What outcome does the record of this test show for COC(=O)CCSCCC(=O)OC ? inactive

What outcome does the record of this test show for CCCCn1cc[n+](C)c1 ? inactive

What outcome does the record of this test show for COCCCN ? inactive

What outcome does the record of this test show for CCC(C)(CCC(C)C)C(=O)O (centres undefined) ? inactive

What outcome does the record of this test show for F[B-](F)(F)F ? inactive

What outcome does the record of this test show for Cc1cc2nc3c(=O)[nH]c(=O)nc-3n(C[C@H](O)[C@H](O)[C@H](O)CO)c2cc1C ? inactive

What outcome does the record of this test show for CCCCCCCCCC/C=C/C1CC(=O)OC1=O (centres undefined) ? inactive

What outcome does the record of this test show for Cc1ccccc1S(N)(=O)=O ? inactive

What outcome does the record of this test show for CC(C)(Oc1ccc(Cl)cc1)C(=O)O ? inactive

What outcome does the record of this test show for CCCCCCCCCCC1CO1 (centres undefined) ? inactive

What outcome does the record of this test show for CCC(C)C1N=C(C)C(C)S1 (centres undefined) ? inactive

What outcome does the record of this test show for CCCCNC(N)=O ? inactive

What outcome does the record of this test show for NCc1ccccc1 ? inactive

What outcome does the record of this test show for Sc1nc2ccccc2s1 ? active

What outcome does the record of this test show for CNC[C@H](O)[C@@H](O)[C@H](O)[C@H](O)CO ? inactive

What outcome does the record of this test show for [O-][n+]1ccc(Cl)cc1 ? inactive

What outcome does the record of this test show for O=C(CC(C(=O)OC1CCCCC1)S(=O)(=O)O)OC1CCCCC1 (centres undefined) ? inactive

What outcome does the record of this test show for CCOC(=O)CC(=O)OCC ? inactive

What outcome does the record of this test show for CN(C)N=Nc1ccccc1 ? inactive

###

target desc: Bile acid receptor (Homo sapiens) (UniProt Q96RI1)
Sequence (Q96RI1 whole entry, looked up): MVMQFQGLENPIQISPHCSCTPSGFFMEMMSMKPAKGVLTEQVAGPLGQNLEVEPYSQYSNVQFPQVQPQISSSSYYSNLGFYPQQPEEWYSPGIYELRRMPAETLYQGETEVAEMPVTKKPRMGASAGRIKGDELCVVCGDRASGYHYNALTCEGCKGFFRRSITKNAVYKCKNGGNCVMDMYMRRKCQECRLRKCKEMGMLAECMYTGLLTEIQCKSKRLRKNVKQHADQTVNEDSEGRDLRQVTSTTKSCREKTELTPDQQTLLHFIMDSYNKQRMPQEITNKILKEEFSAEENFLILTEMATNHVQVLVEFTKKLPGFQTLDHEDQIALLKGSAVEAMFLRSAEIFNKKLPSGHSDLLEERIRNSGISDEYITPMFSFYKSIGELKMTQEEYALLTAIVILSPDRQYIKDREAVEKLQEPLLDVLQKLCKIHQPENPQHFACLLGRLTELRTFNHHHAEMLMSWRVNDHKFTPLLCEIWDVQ
procedure summary: OT_FXR_FXRSRC1_0480: Odyssey Thera (OT) 8-hour HEK293T Protein-Complementation Assay for Farnesoid X receptor/SRC-1 Co-activator (AID 2283383)
Results filed as inconclusive are left out. Active and inactive are the calls of the source. Rule for the calls: active = hit-call score of the fitted dose curve at least 0.9, where 1 is the maximum; inconclusive = response in the unintended direction; inactive = score below 0.9.
Pick from 1 for active, -1 for inactive when you respond.

What outcome does the record of this test show for CCCCOC(=O)COc1ccc(Cl)cc1Cl ? -1

What outcome does the record of this test show for Cc1cc2nc3c(=O)[nH]c(=O)nc-3n(C[C@H](O)[C@H](O)[C@H](O)CO)c2cc1C ? 1

What outcome does the record of this test show for CCCCCC[C@@H](O)C/C=C\CCCCCCCC(=O)O ? 1

What outcome does the record of this test show for O=C(Oc1ccccc1)c1ccccc1 ? 1

What outcome does the record of this test show for CCOC(=O)CC(=O)OCC ? -1

What outcome does the record of this test show for COC(=O)[C@]1(C)CCC[C@@]2(C)[C@H]1CC=C1C=C(C(C)C)CC[C@@H]12 ? 1

###

target desc: Cellular tumor antigen p53 (Homo sapiens) (UniProt P04637)
Sequence (P04637 whole entry, looked up): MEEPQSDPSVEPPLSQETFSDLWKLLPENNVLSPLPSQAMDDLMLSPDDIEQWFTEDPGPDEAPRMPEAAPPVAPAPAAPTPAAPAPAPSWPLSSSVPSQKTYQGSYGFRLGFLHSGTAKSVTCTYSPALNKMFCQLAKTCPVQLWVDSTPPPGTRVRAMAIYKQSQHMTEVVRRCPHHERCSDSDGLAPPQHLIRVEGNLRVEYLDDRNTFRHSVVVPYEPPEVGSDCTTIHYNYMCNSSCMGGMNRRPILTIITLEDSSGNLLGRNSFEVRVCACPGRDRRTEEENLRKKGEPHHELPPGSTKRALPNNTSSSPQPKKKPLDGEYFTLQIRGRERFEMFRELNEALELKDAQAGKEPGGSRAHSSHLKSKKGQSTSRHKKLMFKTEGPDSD
procedure summary: TOX21_p53_BLA_p4_ratio: Tox21 HCT-116 p53 Agonism Beta-lactamase Assay, Ratio, Phase 4 (AID 2283601)
Records with an inconclusive call do not appear. Calls of active or inactive are those of the source. Rule for the calls: active = hit-call score of the fitted dose curve at least 0.9, where 1 is the maximum; inconclusive = response in the unintended direction; inactive = score below 0.9.
Pick from active, inactive when you respond.

{"columns": ["compound", "cat"],
 "data": [
  ["O=C(O)CN(CCN(CC(=O)O)CC(=O)O)CC(=O)O", "inactive"],
  ["Cc1cccc2sc(N)nc12", "inactive"]
]}

What outcome does the record of this test show for CC1(C)S[C@@H]2[C@H](NC(=O)[C@H](N)c3ccccc3)C(=O)N2[C@H]1C(=O)OCOC(=O)[C@@H]1N2C(=O)C[C@H]2S(=O)(=O)C1(C)C ? inactive

What outcome does the record of this test show for O=C(C=Cc1ccc(O)c(O)c1)O[C@@H]1C[C@](O)(C(=O)O)C[C@@H](O)[C@H]1O ? inactive

What outcome does the record of this test show for CC(C(=O)O)c1ccc(N2Cc3ccccc3C2=O)cc1 (stereo unspecified) ? inactive

What outcome does the record of this test show for CCCCOc1cc(C(=O)NCCN(CC)CC)c2ccccc2n1 ? inactive

What outcome does the record of this test show for Cc1c(Cl)cccc1Nc1ccccc1C(=O)O ? active

What outcome does the record of this test show for NNc1nncc2ccccc12 ? inactive

What outcome does the record of this test show for CCOc1ccc2nc3cc(N)ccc3c(N)c2c1 ? active

What outcome does the record of this test show for CN1CCN(CCC=C2c3ccccc3Sc3ccc(S(=O)(=O)N(C)C)cc32)CC1 ? active

What outcome does the record of this test show for CCCCCCCCCOC(=O)c1ccccc1C(=O)OCCCCCCCCC ? inactive

Cited source: PubChem BioAssay (EPA / NIEHS)
